assay: yeast display, Sf9 membrane polyspecificity reagent, FACS + sequencing; frameworks hold sequencing errors
OBSERVATION TYPE: polyreactivity (PSR sort gate)

{"SEQUENCE CHAIN": "QVQLVESGGGLVQEGGSLRLSCAASGNIFTTYAMGWYRQAPGKERELVAAISRSGGRTNYADSVKGRFTISRDNAKNTVYLQMNSLKPEDTAVYYCNRALKPVDSYAYGYWGQGTQVTVSS", "OBSERVATION TYPE": "polyreactivity (PSR sort gate)", "ENDPOINT RESULT": "high polyreactivity"}
{"SEQUENCE CHAIN": "QVQLVESGGGLVQAGGSLRLSCAASGFIFSRNAMGWYRQAPGKEREFVAAISGRGGSTYYADSVKGRFTISRDNAKNTVYVQMNSLKPEDTAVYYCAVYSYGQTYSGYYLGQGTQVTVSS", "OBSERVATION TYPE": "polyreactivity (PSR sort gate)", "ENDPOINT RESULT": "high polyreactivity"}
{"SEQUENCE CHAIN": "QVQLQESGGGLVQAGGILRMSCAASGTIFSEANMGWYRQAPGKERELVATIGQGSTTNYADSVKGRFTISRDNAKNTVYLQMNSLKPEETAVYYCAVVTVDAVGFVYWCQGTQVTVSS", "OBSERVATION TYPE": "polyreactivity (PSR sort gate)", "ENDPOINT RESULT": "low polyreactivity"}
{"SEQUENCE CHAIN": "QVQLVESGGGLVQAGGSLRLSCAASGRTFRPYTMGWYRQAPGKERELVAAISASGGRTYYADSVKGRFTISRDNAKNTVYLQMNSLKPEDTAVYYCAARVRDSLVYGGWDDYWGQGTQVTVSS", "OBSERVATION TYPE": "polyreactivity (PSR sort gate)", "ENDPOINT RESULT": "high polyreactivity"}

We next turn to a different sequence, shown below.
Fill in reported polyreactivity (PSR sort gate) for this entry: "QVQLVESGGGLVQAGGSLRLSCAASGSTFWYYAMGWFRQAPGKERELVAAITRGASTNYADSVKGRFTISRDNAKNTVYLQMNSLKPEDTAVYYCAAGPARWKGYYWGQGTQVTVSS" high polyreactivity

----------
test: yeast display, Sf9 membrane polyspecificity reagent, FACS + sequencing; frameworks hold sequencing errors

{"SEQUENCE CHAIN": "KVQLVESGGGLVQAGGSLRLSCAPSGRTFRSNGMGWYIQAPGKERELVATISEGGGSTYYADSVKGRFTISRDNAKNTVYLEMISLKPEDSAVYFCAADKWYVLHYLDMNYWGQGTQVTVSS", "polyreactivity (PSR sort gate)": "high polyreactivity"}
{"SEQUENCE CHAIN": "QVQLVESGGGLVQAGGSLPLSCAASGSIFTYNTMGSYRQAPGKERELVATISWSGGRTYYADSVKGRVTISRDNAKNTVYLQMNSLKPEDTAVYYCAAVYYSYYGYFLPYGYWGQGTQVTVSS", "polyreactivity (PSR sort gate)": "high polyreactivity"}

----------
experiment: yeast display, Sf9 membrane polyspecificity reagent, FACS + sequencing; frameworks hold sequencing errors
OBSERVATION TYPE: polyreactivity (PSR sort gate)

{"SEQUENCE CHAIN": "QVQLVESGGGLVQAGGSLRLSCAASGFTFISNAMGWYRQAPGKERELVAAISSAGGRTYYADSVKGRFTISRATAKITVYLQMNTLKPEDTEVYYSNADRSLLYSRKIEYDSWGQGTQVTVSS", "OBSERVATION TYPE": "polyreactivity (PSR sort gate)", "ENDPOINT RESULT": "low polyreactivity"}
{"SEQUENCE CHAIN": "QVQLVESGGGLVQAGGSLRLSCAASGSIFGEYAMGWSRQAPGKERELVATIRQSGDSTYYADSVKGRFTISRDNAKNTVYLQMNSLKPEDTEVYYCADDLWLYDYYSEYDYWGQGTQVTVSS", "OBSERVATION TYPE": "polyreactivity (PSR sort gate)", "ENDPOINT RESULT": "low polyreactivity"}
{"SEQUENCE CHAIN": "QVQLVESGGGLVQAGGSLRLSCAASGSIFRWNAMGWYRQSPGKERELLAAIDSGGSTYADSVKGRFTISRYNAKNTVYLQMYSLKPEDTAVYYCAAEIPDEWPYDYWGQGTQVTVSS", "OBSERVATION TYPE": "polyreactivity (PSR sort gate)", "ENDPOINT RESULT": "low polyreactivity"}

----------
assay: yeast display, Sf9 membrane polyspecificity reagent, FACS + sequencing; frameworks hold sequencing errors
OBSERVATION TYPE: polyreactivity (PSR sort gate)

{"SEQUENCE CHAIN": "QVQLVESGGGLVQAGGSLRLSCAASGSIFRFYAMGWYRQAPGKERELVAAITSGGSTNYADSVKGRFTISRDNAKNTVYLQMNSLKPEDTAVYYCAAELVYFFIYDYWGQGTQVTVSS", "OBSERVATION TYPE": "polyreactivity (PSR sort gate)", "ENDPOINT RESULT": "low polyreactivity"}
{"SEQUENCE CHAIN": "PVQLVESGGGLVQAGGSLRLSCADSGSIFRKYARGWYRQAPGKERELVAAITYGGSSTYYADSVKGRFTISRDNAKKTVYLQRNSLKPQDTAVYYFINDRPSYPAYGHTQYVVQMDYWGQGTQVTVSS", "OBSERVATION TYPE": "polyreactivity (PSR sort gate)", "ENDPOINT RESULT": "low polyreactivity"}

----------
experiment: yeast display, Sf9 membrane polyspecificity reagent, FACS + sequencing; frameworks hold sequencing errors
OBSERVATION TYPE: polyreactivity (PSR sort gate)

{"SEQUENCE CHAIN": "QVQLQESGCGLVQEGGSLRPSCAASGSISEGVPMGWSRQAPGEERELVATTVMGATTNYADSVKGRFTISRGNANNTVYLQMISLKPDETAVYYCAAPLRYDKGFSFWGQGTQVTVSS", "OBSERVATION TYPE": "polyreactivity (PSR sort gate)", "ENDPOINT RESULT": "low polyreactivity"}
{"SEQUENCE CHAIN": "QVQLVESGGGLVHAGGSLRLSCAASGRTFYANAMGWYRQAPGKERELVAAISSRSGTTHYADSEKGRFTISRDNAKNSVYLQMNSLKPEETAVYYCAVRYYRRRYDYWGQGTQVTVSS", "OBSERVATION TYPE": "polyreactivity (PSR sort gate)", "ENDPOINT RESULT": "low polyreactivity"}

----------
assay: yeast display, Sf9 membrane polyspecificity reagent, FACS + sequencing; frameworks hold sequencing errors

{"SEQUENCE CHAIN": "QVQLVESGGGLVQAGGSLRLSCAASGSTFYGYGMGWYRQAPGKERELVAAITGSGDTTYYADSVKGRFTISRDNAKNSVYLQMNSLKPEDTAVYYCNARWHAEYDYWGQGTQVTVSS", "polyreactivity (PSR sort gate)": "low polyreactivity"}
{"SEQUENCE CHAIN": "QVQLVESGGGLVQAGGSLRLSCAASGINFAYNAMGWYRQAPGKERELVATITDSGGSTSYADSVKGRFTISRDNAKNTVYLQMNSLKPEDTAVYYCAVLPVYWYWRNYVYLSGYDYWGQGTQVTVSS", "polyreactivity (PSR sort gate)": "low polyreactivity"}

----------
test: yeast display, Sf9 membrane polyspecificity reagent, FACS + sequencing; frameworks hold sequencing errors
OBSERVATION TYPE: polyreactivity (PSR sort gate)

Worked examples, 8 sequences total:
{"SEQUENCE CHAIN": "HFQLVESGGGLVQAGGSLRLSCAASGSSYSNYAMGWYRQAPGKEREMVAAISSSGSTYYADSVKGRFTISRDNAKNTVYLQLHRLKPEDTAVYYCAAGKDRRTSRYRYDSWGQGTQVTVSS", "ENDPOINT RESULT": "high polyreactivity"}
{"SEQUENCE CHAIN": "QVQLVESGGGLDQAGGSLRLSCAASGFTSYKYSRGWYRQAPGKETELVAASTGSGSRTFYADSVKGRFTISRDNAKNSFYLLMNSLKPEDTADYYCAARRPLYPERDYWGHGTQVTVSS", "ENDPOINT RESULT": "high polyreactivity"}
{"SEQUENCE CHAIN": "QVQLVESGGGLVQAGGSLRLSCAASGSIFRSYAMGWYRQAPGKERELVAAIRSDGRTNYADSVKGRFTISRDNAKNTVYFQMNSLKPEDTAVYYCDANAYYSYWRSMDYWGQGTQVTVSS", "ENDPOINT RESULT": "low polyreactivity"}
{"SEQUENCE CHAIN": "QVQLVESGGGLVQAGGSLRLSCAASGFTFRINAMGWYRQAPGKERELVAAISWSGGSTYYADSVKGRFTISRDNAKNTVYLQMNSLKPEDTAVYYCNKVQSSRYRSQRTFQYGYWGQGTQVTVSS", "ENDPOINT RESULT": "high polyreactivity"}
{"SEQUENCE CHAIN": "QVQLVESGGGLVQAGGSLRLSCAASGRIFEPYAMGWYRQAPGNERELVAAINSGGSTNYADSVKGRFTISRDNAKNTVYLQMNSLKPEDTAVYYCAASVYGQHAGPGRWYTFYYWGQGTQVTVSS", "ENDPOINT RESULT": "low polyreactivity"}
{"SEQUENCE CHAIN": "QVQLVESGGGLVQAGGSLRLSCAASGSTSRYNVMGWSRQPPGKERELVAAISSRGVSTYYADSVKGRFTISRDNAKNTVYLQMNSLKPEDTAVYYCAALYGGPSHYGYWGQGTQVTVSS", "ENDPOINT RESULT": "high polyreactivity"}
{"SEQUENCE CHAIN": "QVQLVESGGGLVQAGGSLRLSCAASGFIFRWYAMGWYRQEPGKERELVAAITWRGGSTYADSVKGRFTISRDNAKNTVYLQMNSLKPEVTAVYYCAAETHRRYDYWGQGTQVTVSS", "ENDPOINT RESULT": "high polyreactivity"}
{"SEQUENCE CHAIN": "QVQLVESAGGLVQARGSLRLSCAASGINFDWYTMGWYRKAPGKERELVAAISWRGGRTYYADSVKGRFTISRDNAKNTVYLQMNSLKPEDTAVYYCAAEAPVQPFYVFNTGIYELDYWGQGTQVTVSS", "ENDPOINT RESULT": "low polyreactivity"}

Fill in reported polyreactivity (PSR sort gate) for this entry: "QVQLVESGGGLVQAGGSLRLSCAASGRIFYQYAMGWYRQAPGKERELVAAITRGGNTYYADSVKGRFTISRDNAKNTVYLQMNSLKPEDTAVYYCNARWHTTGYRYDYWGQGTQVTVSS" high polyreactivity

Fill in reported polyreactivity (PSR sort gate) for this entry: "QVQLVESGGGLVQAGGSLRLSCAASGSIFGGYAMGWYRQAPGKERELVAAISSGGSTYYADSVKGRFTISRDNAKNTVYLQMNSLKPEDTAVYYCATSTYAYRRNSYDYTRPRFGYWGQGTQVTVSS" high polyreactivity

Fill in reported polyreactivity (PSR sort gate) for this entry: "QVQLVESGGGLVQAGGSLRLSCAASGLTFGYYAMGWYRQAPGKERELVAGISGSGGSTYYADSVKGRFTISRDNAKNTLYLQMNSLKPEDTAVYYCNAEARYTGFAYSYFNSDYWGQGTQVTVSS" low polyreactivity
